Where do the numbers come from? From ChEMBL document CHEMBL4431351.

Tested on: Urease subunit alpha/Urease subunit beta (Helicobacter pylori (strain ATCC 700392 / 26695) (Campylobacterpylori))
Sequence (P69996 whole entry): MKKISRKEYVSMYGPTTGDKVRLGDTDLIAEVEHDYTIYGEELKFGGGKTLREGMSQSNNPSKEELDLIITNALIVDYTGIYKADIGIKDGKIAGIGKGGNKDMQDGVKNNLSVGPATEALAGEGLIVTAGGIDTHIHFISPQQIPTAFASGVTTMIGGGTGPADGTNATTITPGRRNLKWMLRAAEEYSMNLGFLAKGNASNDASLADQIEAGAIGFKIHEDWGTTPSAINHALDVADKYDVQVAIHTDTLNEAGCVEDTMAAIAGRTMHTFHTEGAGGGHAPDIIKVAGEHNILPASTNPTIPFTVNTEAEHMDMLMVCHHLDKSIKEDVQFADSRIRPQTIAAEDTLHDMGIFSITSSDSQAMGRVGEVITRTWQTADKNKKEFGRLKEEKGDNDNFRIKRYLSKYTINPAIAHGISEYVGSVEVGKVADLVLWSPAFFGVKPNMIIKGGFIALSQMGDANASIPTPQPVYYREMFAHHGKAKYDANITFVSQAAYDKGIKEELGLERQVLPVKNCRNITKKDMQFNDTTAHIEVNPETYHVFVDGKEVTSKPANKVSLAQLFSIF
Sequence (P14916 whole entry, further chain): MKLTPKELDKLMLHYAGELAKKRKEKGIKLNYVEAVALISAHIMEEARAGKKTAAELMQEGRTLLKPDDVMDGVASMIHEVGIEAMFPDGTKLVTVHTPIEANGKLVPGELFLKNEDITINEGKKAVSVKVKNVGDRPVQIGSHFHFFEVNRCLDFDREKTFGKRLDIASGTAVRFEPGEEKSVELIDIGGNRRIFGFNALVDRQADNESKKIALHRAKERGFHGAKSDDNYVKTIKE
Assay: Inhibition of recombinant Helicobacter pylori urease expressed in Escherichia coli rosetta DE3 using urea as substrate assessed as transformed cell urea splitting activity preincubated for 2 hrs followed by substrate addition measured after 2 hrs by Berthelot assay
Measured log10 of IC50 values are reported for all entries that follow.
Quantity measured: log10 of IC50 (log10 of the value in µM)

• O=c1[nH][se]c2ccccc12 = 0.11
• COC(=O)[C@H](C)n1[se]c2ccccc2c1=O = 1.28
• C[C@@H](C(=O)O)n1[se]c2ccccc2c1=O = 2.29
• O=C(O)c1ccccc1[Se][Se]c1ccccc1C(=O)O = 2.90
• O=C(O)CCCNC(=O)c1ccccc1[Se][Se]c1ccccc1C(=O)NCCCC(=O)O = 1.55
• COC(=O)CCCNC(=O)c1ccccc1[Se][Se]c1ccccc1C(=O)NCCCC(=O)OC = 1.30
• O=c1c2ccccc2[se]n1-c1ccccc1 = 0.58
• COC(=O)CNC(=O)c1ccccc1[Se][Se]c1ccccc1C(=O)NCC(=O)OC = 1.93
• O=C(O)CCCn1[se]c2ccccc2c1=O = 1.57
• COC(=O)Cn1[se]c2ccccc2c1=O = 0.96
• O=C(O)CCn1[se]c2ccccc2c1=O = 1.58
• CC(C)C[C@@H](C(=O)O)n1[se]c2ccccc2c1=O = 1.98
• COC(=O)[C@H](CC(C)C)n1[se]c2ccccc2c1=O = 1.55
• O=C(Nc1ccccc1)c1ccccc1[Se][Se]c1ccccc1C(=O)Nc1ccccc1 [EBSELEN DISELENIDE] = 1.04
• COC(=O)[C@@H](CC(C)C)n1[se]c2ccccc2c1=O = 1.61
• CCC(C)[C@@H](C(=O)OC)n1[se]c2ccccc2c1=O (stereo partly drawn) = 1.41
• O=C(O)CNC(=O)c1ccccc1[Se][Se]c1ccccc1C(=O)NCC(=O)O = 2.08
• C[C@H](c1ccccc1)n1[se]c2ccccc2c1=O = 1.40
